Target: Tubulin
Test: Inhibition of tubulin (unknown origin) polymerization after 20 mins
Quantity: pIC50
Entry type: numeric. Quantity: pIC50, the -log10 of concentration in molar units.

// fetch pIC50 given entry "COc1ccc(/C=C\c2cc(OC)c(OC)c(OC)c2)cc1[N+](=O)[O-]" 5.74

* * *

# reported inhibition; entries follow
Species on record: Bos taurus
Assay: Displacement of [3H]colchicine from bovine brain tubulin at 5 uM after 10 mins by scintillation counting analysis relative to control
Give the number; % is assumed, so skip it.

As a guide, the following entries are already answered.
COc1ccc([Se]c2cc(OC)c(OC)c(OC)c2)cc1 94
COc1cc(SSc2cc(OC)c(OC)c(OC)c2)cc(OC)c1OC 9
COc1ccc([Se][Se]c2ccc(OC)cc2)cc1 34
COc1ccc(Sc2cc(OC)c(OC)c(OC)c2)cc1[N+](=O)[O-] 58

# ---- query molecule ----
// fetch inhibition given entry "COc1ccc(Sc2cc(OC)c(OC)c(OC)c2)cc1N" 95
